System: phosphorylation of Akt at Serine 473 in U87 MG cells
assayDetails: cells
runConditions: Homo sapiens, U-87 MG, 2 h, read-out: U87Cell IC50, pAkt (Ser 473), U87 MG cells, two hours with compound
pIC50: −log10 of the molar value.
experimentalEndpoint: pIC50

>>> recordedvalue("COc1ncc(Nc2ncc([C@@H](C)N3CCOCC3)cc2-c2cc(N)nc(C)n2)cc1F [Example 276]")
7.04
>>> recordedvalue("COc1ccc(Nc2ncc(-c3ccc(OC)nc3)cc2-c2nc(C)nc(N)n2)cn1 [Example 169]")
6.98
>>> recordedvalue("Cc1cnc(Nc2cccc3[nH]ccc23)c(-c2nc(C)nc(N)n2)c1 [Example 46]")
7.10
